Collected Median dimer activity (recombination on loxP) values appear next to each entry.
# TGT: T1, Cre recombinase monomer with Q311R mutation
# T1 chain: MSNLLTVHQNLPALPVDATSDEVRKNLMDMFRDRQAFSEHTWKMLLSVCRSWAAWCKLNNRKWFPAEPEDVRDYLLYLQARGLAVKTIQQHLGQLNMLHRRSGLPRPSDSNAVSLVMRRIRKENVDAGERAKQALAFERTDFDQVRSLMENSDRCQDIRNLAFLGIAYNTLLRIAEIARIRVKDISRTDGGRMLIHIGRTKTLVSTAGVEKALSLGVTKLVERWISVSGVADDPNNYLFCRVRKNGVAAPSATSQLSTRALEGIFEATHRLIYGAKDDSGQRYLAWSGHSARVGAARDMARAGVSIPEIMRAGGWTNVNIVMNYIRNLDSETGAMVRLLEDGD
PARAMETER MEASURED: Median dimer activity (recombination on loxP) (%)

{"columns": ["PROTEIN", "UNIT SYMBOL", "MEASURED VALUE"],
 "data": [
  ["Cre recombinase monomer with E176W mutation (protein) MSNLLTVHQNLPALPVDATSDEVRKNLMDMFRDRQAFSEHTWKMLLSVCRSWAAWCKLNNRKWFPAEPEDVRDYLLYLQARGLAVKTIQQHLGQLNMLHRRSGLPRPSDSNAVSLVMRRIRKENVDAGERAKQALAFERTDFDQVRSLMENSDRCQDIRNLAFLGIAYNTLLRIAWIARIRVKDISRTDGGRMLIHIGRTKTLVSTAGVEKALSLGVTKLVERWISVSGVADDPNNYLFCRVRKNGVAAPSATSQLSTRALEGIFEATHRLIYGAKDDSGQRYLAWSGHSARVGAARDMARAGVSIPEIMQAGGWTNVNIVMNYIRNLDSETGAMVRLLEDGD", "%", 90],
  ["Cre recombinase monomer with R173Q mutation (protein) MSNLLTVHQNLPALPVDATSDEVRKNLMDMFRDRQAFSEHTWKMLLSVCRSWAAWCKLNNRKWFPAEPEDVRDYLLYLQARGLAVKTIQQHLGQLNMLHRRSGLPRPSDSNAVSLVMRRIRKENVDAGERAKQALAFERTDFDQVRSLMENSDRCQDIRNLAFLGIAYNTLLQIAEIARIRVKDISRTDGGRMLIHIGRTKTLVSTAGVEKALSLGVTKLVERWISVSGVADDPNNYLFCRVRKNGVAAPSATSQLSTRALEGIFEATHRLIYGAKDDSGQRYLAWSGHSARVGAARDMARAGVSIPEIMQAGGWTNVNIVMNYIRNLDSETGAMVRLLEDGD", "%", 92]
]}
